target: Cdc25A (human); assay: cell-based or functional assay
Give measured IC50 for each item. Keep answers brief.
Return type: number; implicit unit µM.

The reported IC50 of the substance 2-EtO-naphthyl-1-CO-Smp-Glu(tBu)-Pro-Bta-Aad-NHtBu (peptide) was 1.1

The reported IC50 of the substance 2-EtO-naphthyl-1-CO-Smp-Nle-Pro-Bta-Aad-NHtBu (peptide) was 2.5

The reported IC50 of the substance 2-EtO-naphthyl-1-CO-Smp-Nva-MePro-Bta-Aad-NHtBu (peptide) was 1.5

The reported IC50 of the substance 2-CH3O-1-naphthyl-CO-Smp-Glu-Glu-Bta-Aad-NHtBu (peptide) was 5

The reported IC50 of the substance 2-EtO-naphthyl-1-CO-Smp-Glu-Pro-Bta-Aad-NHtBu (peptide) was 2.2

---

target: Cdc25A (Homo sapiens); assay: Inhibition of Cdc25A enzymatic activity (IC50); type: biochemical
Sequence (P30304 whole entry): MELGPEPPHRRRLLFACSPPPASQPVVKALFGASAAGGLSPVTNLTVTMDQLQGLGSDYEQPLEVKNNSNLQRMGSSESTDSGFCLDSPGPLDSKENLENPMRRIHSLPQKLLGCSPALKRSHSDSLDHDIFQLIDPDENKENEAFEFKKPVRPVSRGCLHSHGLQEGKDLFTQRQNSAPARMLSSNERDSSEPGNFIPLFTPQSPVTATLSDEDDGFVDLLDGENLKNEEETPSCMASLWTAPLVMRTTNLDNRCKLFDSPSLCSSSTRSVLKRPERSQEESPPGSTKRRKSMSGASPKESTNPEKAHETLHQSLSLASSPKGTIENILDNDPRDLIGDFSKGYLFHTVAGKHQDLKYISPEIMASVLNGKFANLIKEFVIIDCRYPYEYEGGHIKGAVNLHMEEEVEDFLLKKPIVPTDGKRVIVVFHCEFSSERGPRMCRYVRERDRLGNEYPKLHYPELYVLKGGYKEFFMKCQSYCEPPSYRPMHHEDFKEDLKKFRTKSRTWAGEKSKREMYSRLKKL
Non-standard residues stand in square brackets, D forms with d. Residues, ends and D or L forms follow the SMILES beside them. *: point of attachment. Phe(4-CH2SO3H) = N[C@@H](Cc1ccc(CS(=O)(=O)O)cc1)C(=O)O; Bta = N[C@@H](Cc1csc2ccccc12)C(=O)O; Aad = N[C@@H](CCCC(=O)O)C(=O)O; X1 = CCOc1ccc2ccccc2c1C(=O)*; αMeP = C[C@@]1(C(=O)O)CCCN1; Nle = CCCC[C@H](N)C(=O)O; Nva = CCC[C@H](N)C(=O)O; NHtBu = CC(C)(C)N*; OtBu = CC(C)(C)O*
Give measured IC50 for each item. Keep answers brief.

The reported IC50 of the compound CCC[C@H](NC(=O)[C@H](Cc1ccc(CS(=O)(=O)O)cc1)NC(=O)c1c(OCC)ccc2ccccc12)C(=O)N1CCC[C@@]1(C)C(=O)N[C@@H](Cc1csc2ccccc12)C(=O)N[C@@H](CCCC(=O)O)C(=O)NC(C)(C)C [cdc1749] (X1-[Phe(4-CH2SO3H)][Nva][αMeP][Bta][Aad]-NHtBu) was 1500 nM

The reported IC50 of the compound CCOc1ccc2ccccc2c1C(=O)N[C@@H](Cc1ccc(CS(=O)(=O)O)cc1)C(=O)N[C@@H](CCC(=O)O)C(=O)N1CCC[C@H]1C(=O)N[C@@H](Cc1csc2ccccc12)C(=O)N[C@@H](CCCC(=O)O)C(=O)NC(C)(C)C [cdc1763] (X1-[Phe(4-CH2SO3H)]EP[Bta][Aad]-NHtBu) was 2200 nM

The reported IC50 of the compound CCOc1ccc2ccccc2c1C(=O)N[C@@H](Cc1ccc(CS(=O)(=O)O)cc1)C(=O)N[C@@H](CCC(=O)OC(C)(C)C)C(=O)N1CCC[C@H]1C(=O)N[C@@H](Cc1csc2ccccc12)C(=O)N[C@@H](CCCC(=O)O)C(=O)NC(C)(C)C [cdc1719] (X1-[Phe(4-CH2SO3H)]E(OtBu)P[Bta][Aad]-NHtBu) was 1100 nM

The reported IC50 of the compound CCCC[C@H](NC(=O)[C@H](Cc1ccc(CS(=O)(=O)O)cc1)NC(=O)c1c(OCC)ccc2ccccc12)C(=O)N1CCC[C@H]1C(=O)N[C@@H](Cc1csc2ccccc12)C(=O)N[C@@H](CCCC(=O)O)C(=O)NC(C)(C)C [cdc1748] (X1-[Phe(4-CH2SO3H)][Nle]P[Bta][Aad]-NHtBu) was 2500 nM
